# assay.system: T1, soluble EGFR (sEGFR) (Homo sapiens (assumed; EGFR on human …, UniProt P00533)
# T1 construct: soluble epidermal growth factor receptor (sEGFR); also called epidermal growth factor receptor; immobilized EGFR; source: prepared as described previously [28]
# assay.procedure: SPR; Biacore 2000; sEGFR immobilised on a CM5 chip (amount not given for Tables 2 and 5); running buffer PBS with 0.005% Tween20; scFv monomer or dimer injected for 120 s at 10 to 250 nM; global fit, 1:1 Langmuir model
# condition.info: both partners purified
Kindly supply the reported kon values for the records listed here.
Answers are plain numbers, in M⁻¹ s⁻¹.

[[record]]
binder = "0K h528 scFv (scFv, V domains shown, linker (GGGGS)3; it looks like Kabat numbering; also called h528 scFv without lysine in the CDR and FR) VH: QVQLVQSGAEVAEPGASVQVSCAASGYTFTSYWMHWVRQAPGQGLEWMGNIYPGSGGTNYAEEFQNRVTMTRDTSISTAYMELSRLRSDDTAVYYCARSGGPYFFDYWGQGTLVTVSS VL: DIVMTQSPLSLPVTPGEPASISCRSSQNIVHNNGITYLEWYLQRPGQSPQLLIYQVSDRFSGVPDRFSGSGSGTDFTLTISRVEAEDVGVYYCFQGSHIPPTFGQGTEVEIE"
measured = 60000

[[record]]
binder = "LK103-0K h528 scFv (scFv, V domains shown, linker (GGGGS)3; lysine kept at L103; also called LK103-0K scFv) VH: QVQLVQSGAEVAEPGASVQVSCAASGYTFTSYWMHWVRQAPGQGLEWMGNIYPGSGGTNYAEEFQNRVTMTRDTSISTAYMELSRLRSDDTAVYYCARSGGPYFFDYWGQGTLVTVSS VL: DIVMTQSPLSLPVTPGEPASISCRSSQNIVHNNGITYLEWYLQRPGQSPQLLIYQVSDRFSGVPDRFSGSGSGTDFTLTISRVEAEDVGVYYCFQGSHIPPTFGQGTKVEIE"
measured = 42000

[[record]]
binder = "HK19-0K h528 scFv (scFv, V domains shown, lysine kept at H19; linker (GGGGS)3; 0K scFv with the 19th residue of VH returned to lysine; also called HK19-0K scFv; KH19-0K scFv) VH: QVQLVQSGAEVAEPGASVKVSCAASGYTFTSYWMHWVRQAPGQGLEWMGNIYPGSGGTNYAEEFQNRVTMTRDTSISTAYMELSRLRSDDTAVYYCARSGGPYFFDYWGQGTLVTVSS VL: DIVMTQSPLSLPVTPGEPASISCRSSQNIVHNNGITYLEWYLQRPGQSPQLLIYQVSDRFSGVPDRFSGSGSGTDFTLTISRVEAEDVGVYYCFQGSHIPPTFGQGTEVEIE"
measured = 60000


Consider the record given below.
Identify measured kon corresponding to 0KCDR h528 scFv (scFv, V domains shown, linker (GGGGS)3; it looks like Kabat numbering; also called 0KCDR scFv) VH: QVQLVQSGAEVKKPGASVKVSCKASGYTFTSYWMHWVRQAPGQGLEWMGNIYPGSGGTNYAEEFQNRVTMTRDTSISTAYMELSRLRSDDTAVYYCARSGGPYFFDYWGQGTLVTVSS VL: DIVMTQSPLSLPVTPGEPASISCRSSQNIVHNNGITYLEWYLQKPGQSPQLLIYQVSDRFSGVPDRFSGSGSGTDFTLKISRVEAEDVGVYYCFQGSHIPPTFGQGTKVEIK
141000
